system: M19-MEL melanoma; assay: NCI tumour cell line growth inhibition, 48 h
Listed next: entries and their corresponding TGI.

compound: O=C(Nc1cccc(O)c1)C(=O)C(C(=O)c1ccccc1F)C1OC(=O)c2ccccc21 (stereo unspecified)
reading-unit: µM
comparator: =
TGI: 54.4

compound: O=c1c2cc([N+](=O)[O-])ccc2sc2ccsc12
reading-unit: µM
comparator: >
TGI: 100

compound: CCC[CH2][Sn]([CH2]CCC)([O]C(=O)c1cccnc1SC)[O]C(=O)c1cccnc1SC
reading-unit: µM
comparator: =
TGI: 1.57

compound: CC1=NN(C(=O)Nc2ccccc2)C(=O)C2CCC(=O)N12 (stereo unspecified)
reading-unit: µM
comparator: >
TGI: 100

compound: CCOC(=O)C1=C(OC(OCC)C(CC)[Se]c2ccccc2)CCCC1 (stereo unspecified)
reading-unit: µM
comparator: =
TGI: 33

compound: CN1CCN(C)C12C=c1ccccc1=CC21CC1
reading-unit: µM
comparator: =
TGI: 37.1
